Tested on: Escherichia coli TOP10
assay_text: shrunken log2 fold change of peptide-encoding DNA abundance (4.5 h post-induction vs induction); higher = less antimicrobial activity (less host growth inhibition)
stated_conditions: time post-induction: 4.5 h; library: site-saturation at positions 5, 18, 19, 20
shrunken log2 fold change by entry:
// return just the number, without any unit appended

RRIRYRPPRLPRPRPRPYILPRP; -0.264
RRIRWRPPRLPRPRPRPLNDPRP; -0.281

For the next question, use this sequence.
Fill in: shrunken log2 fold change of RRIRARPPRLPRPRPRPFQQPRP is ___
0.00604

---

Test system: Escherichia coli TOP10
assay_text: shrunken log2 fold change of peptide-encoding DNA abundance (4.5 h post-induction vs induction); higher = less antimicrobial activity (less host growth inhibition)
stated_conditions: time post-induction: 4.5 h; library: site-saturation at positions 5, 18, 19, 20
readout: shrunken log2 fold change

RRIRPRPPRLPRPRPRPKPVPRP; 0.154
RRIRSRPPRLPRPRPRPQHTPRP; -0.424
RRIRHRPPRLPRPRPRPVNKPRP; -0.579
RRIRIRPPRLPRPRPRPDFNPRP; -0.701
RRIRKRPPRLPRPRPRPAAMPRP; 0.707

Fill in: shrunken log2 fold change of RRIRERPPRLPRPRPRPAFKPRP is ___
0.106

Another sequence to look at: RRIRDRPPRLPRPRPRPDKKPRP
0.0252

Another sequence to look at: RRIRWRPPRLPRPRPRPLSRPRP
0.141

Another sequence to look at: RRIRSRPPRLPRPRPRPTKTPRP
-0.0829

---

Tested on: Escherichia coli TOP10
assay_text: shrunken log2 fold change of peptide-encoding DNA abundance (4.5 h post-induction vs induction); higher = less antimicrobial activity (less host growth inhibition)
stated_conditions: time post-induction: 4.5 h; library: site-saturation at positions 5, 18, 19, 20
readout: shrunken log2 fold change
// return just the number, without any unit appended

# annotated cases, reported shrunken log2 fold change shown
RRIRRRPPRLPRPRPRPFPKPRP; 0.0876
RRIRRRPPRLPRPRPRPQVCPRP; -0.175
RRIRSRPPRLPRPRPRPATSPRP; 0.0483
RRIRKRPPRLPRPRPRPSYGPRP; -0.141
RRIRARPPRLPRPRPRPCVEPRP; 0.317

Fill in: shrunken log2 fold change of RRIRHRPPRLPRPRPRPTMWPRP is ___
0.22

Another sequence to look at: RRIRFRPPRLPRPRPRPKMRPRP
0.223

---

shrunken log2 fold change by entry:
System: Escherichia coli TOP10
assay_text: shrunken log2 fold change of peptide-encoding DNA abundance (4.5 h post-induction vs induction); higher = less antimicrobial activity (less host growth inhibition)
stated_conditions: time post-induction: 4.5 h; library: site-saturation at positions 5, 18, 19, 20
// return just the number, without any unit appended

# annotated cases, reported shrunken log2 fold change shown
RRIRERPPRLPRPRPRPSKGPRP; -0.35
RRIRARPPRLPRPRPRPWTHPRP; 0.04
RRIRGRPPRLPRPRPRPVNDPRP; 0.368

For the next question, use this sequence.
Notebook entry, Escherichia coli TOP10 assay: shrunken log2 fold change of RRIRRRPPRLPRPRPRPLTYPRP = ?
-0.204

---

Test system: Escherichia coli TOP10;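 note: peptides expressed intracellularly from a pBAD plasmid library in pooled LB shake-flask culture, induced with 0.3% L-arabinose, DNA abundance read by NGS, three biological replicates, DESeq2 with apeglm shrinkage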
assay_text: shrunken log2 fold change of peptide-encoding DNA abundance (4.5 h post-induction vs induction); higher = less antimicrobial activity (less host growth inhibition)
stated_conditions: time post-induction: 4.5 h; library: site-saturation at positions 5, 18, 19, 20
shrunken log2 fold change by entry:

# annotated cases, reported shrunken log2 fold change shown
RRIRRRPPRLPRPRPRPKASPRP; 0.183
RRIRDRPPRLPRPRPRPIQMPRP; 0.137
RRIRHRPPRLPRPRPRPHMAPRP; -0.0236

Fill in: shrunken log2 fold change of RRIRNRPPRLPRPRPRPICPPRP is ___
-0.0189

Another sequence to look at: RRIRQRPPRLPRPRPRPACMPRP
-0.294

Another sequence to look at: RRIRMRPPRLPRPRPRPNHNPRP
-0.687

Another sequence to look at: RRIRVRPPRLPRPRPRPEGEPRP
0.171

Another sequence to look at: RRIRSRPPRLPRPRPRPSHKPRP
-0.658

Another sequence to look at: RRIRLRPPRLPRPRPRPNFAPRP
0.0393

Another sequence to look at: RRIRIRPPRLPRPRPRPNLTPRP
0.0979
